The entries below are paired with their reported MIC.
# Test system: Escherichia coli
# TEST DETAILS: Antimicrobial activity against Escherichia coli
# Assay type: functional
Report the value in µg/mL with no unit label.

# MOLECULE, MIC / µg/mL
data = [
    ("CCCCCCCC(=O)N[C@@H](CCN)C(=O)N[C@H](C(=O)N[C@@H](CCN)C(=O)N[C@H]1CCNC(=O)[C@H]([C@@H](C)O)NC(=O)[C@H](CCNC(=O)C(Cl)Cl)NC(=O)[C@H](CCN)NC(=O)[C@H](CC(C)C)NC(=O)[C@@H](Cc2ccccc2)NC(=O)[C@H](CCN)NC1=O)[C@@H](C)O [DICHLOROACETYL DAB9 POLYMYXIN B]", 1.54),
]

Data request: What value of MIC has been recorded for this entry: CCCCCCCC(=O)N[C@@H](CCN)C(=O)N[C@H](C(=O)N[C@@H](CCN)C(=O)N[C@H]1CCNC(=O)[C@H]([C@@H](C)O)NC(=O)[C@H](CCNC(=O)[C@@H](N)CS)NC(=O)[C@H](CCN)NC(=O)[C@H](CC(C)C)NC(=O)[C@@H](Cc2ccccc2)NC(=O)[C@H](CCN)NC1=O)[C@@H](C)O
Data returned: 1.68

---

# Test system: Lipopolysaccharide (LPS)
# TEST DETAILS: Displacement of dansyl-PMB from LPS by isothermal titration calorimetry
*1 amine or outer side, *2 acyl side, *3 side chain or, on linkers, in order; H or OH if unused. Where a SMILES comes first, the peptide text is derived from it. Bridges are numbered along the chain shown (N, C = ends). The star is where a group is joined. X1 = NC(=O)[C@@H](CS[*:2])C(=O)[*:1]; X2 = CC[C@H](C)[C@H](NO*)C(=O)O
PARAMETER: Ka

# COMPOUND, Ka
data = [
    ("CC(C)C[C@@H]1NC(=O)[C@H](Cc2ccccc2)NC(=O)[C@H](CCCCN)NC(=O)[C@@H](C(N)=O)CSSC[C@@H](C(=O)N[C@@H](CCCCN)C(=O)N[C@H](C(=O)NCC(=O)N[C@@H](CCCCN)C(=O)O)[C@@H](C)O)NC(=O)[C@H](CCCCN)NC(=O)[C@H](CCCCN)NC1=O (KFLKKCKTGK-OH; linker N-6 via X1)", "0.56 10^7/M"),
    ("CC[C@H](C)[C@H](NOC(=O)[C@H](CCCCN)NC(=O)CNC(=O)[C@@H](NC(=O)[C@H](CCCCN)NC(=O)[C@@H]1CSSC[C@H](C(N)=O)C(=O)N[C@@H](CCCCN)C(=O)N[C@@H](Cc2ccccc2)C(=O)N[C@@H](CC(C)C)C(=O)N[C@@H](CCCCN)C(=O)N[C@@H](CCCCN)C(=O)N1)[C@@H](C)O)C(=O)O (KFLKKCKTGK-X2; linker N-6 via X1)", "0.29 10^7/M"),
]

--- query ---
Data request: What value of Ka has been recorded for this entry: CC[C@H](C)[C@H](N)C(=O)N[C@@H](CCCCN)C(=O)N[C@H](C(=O)N[C@@H](CCCCN)C(=O)N[C@@H](CCCCN)C(=O)N[C@@H](Cc1ccccc1)C(=O)N[C@@H](CC(C)C)C(=O)N[C@@H](CCCCN)C(=O)N[C@@H](CCCCN)C(=O)N[C@H](C(=O)O)[C@@H](C)O)[C@@H](C)O (H-IKTKKFLKKT-OH)
Data returned: 0.2 10^5/M

Cited source: ChEMBL document CHEMBL1156251
